Catalogue of molecules with associated pIC50
System: NCI-H460 human lung cancer cell line
Assay: MTT cytotoxicity assay, NCI-H460
Type: cell-based
Conditions: Homo sapiens, NCI-H460, 48 h, mean ± SD from three independent experiments
pIC50: −log10 of the molar value.
MEASUREMENT KIND: pIC50

MOLECULE	QUAL	RECORDED NUMBER
COc1cccc(N2CC(COC(=O)[C@]3(C)CCC[C@]4(C)c5ccc(C(C)C)cc5CCC34)OC2=O)c1 (stereo partly shown)	=	4.76
COc1ccc(NCC(O)COC(=O)[C@]2(C)CCC[C@]3(C)c4ccc(C(C)C)cc4CCC23)cc1 (stereo partly shown)	<	4.00
COc1ccccc1N1CC(COC(=O)[C@]2(C)CCC[C@]3(C)c4ccc(C(C)C)cc4CCC23)OC1=O (stereo partly shown)	=	5.10
CC(C)c1ccc2c(c1)CCC1[C@](C)(C(=O)OCC(O)CNc3ccccc3F)CCC[C@]21C (stereo partly shown)	=	4.52
CC(C)c1ccc2c(c1)CCC1[C@](C)(C(=O)OCC3CN(c4ccc(Br)cc4)C(=O)O3)CCC[C@]21C (stereo partly shown)	=	4.52
CC(C)c1ccc2c(c1)CCC1[C@](C)(C(=O)OCC3CN(c4ccc(Cl)cc4)C(=O)O3)CCC[C@]21C (stereo partly shown)	=	4.58
CC(C)c1ccc2c(c1)CCC1[C@](C)(C(=O)OCC(O)CNc3ccc(Br)cc3)CCC[C@]21C (stereo partly shown)	=	4.72
CC(C)c1ccc2c(c1)CCC1[C@](C)(C(=O)OCC3CN(c4cccc(Cl)c4)C(=O)O3)CCC[C@]21C (stereo partly shown)	=	4.64
C#Cc1cccc(NCC(O)COC(=O)[C@]2(C)CCC[C@]3(C)c4ccc(C(C)C)cc4CCC23)c1 (stereo partly shown)	=	4.65
CC(C)c1ccc2c(c1)CCC1[C@](C)(C(=O)OCC3CN(c4ccc(F)cc4)C(=O)O3)CCC[C@]21C (stereo partly shown)	=	5.07
C#Cc1cccc(N2CC(COC(=O)[C@]3(C)CCC[C@]4(C)c5ccc(C(C)C)cc5CCC34)OC2=O)c1 (stereo partly shown)	=	4.14
CC(C)c1ccc2c(c1)CCC1[C@](C)(C(=O)OCC(O)CNc3cccc(Br)c3)CCC[C@]21C (stereo partly shown)	=	4.71
Cc1cccc(N2CC(COC(=O)[C@]3(C)CCC[C@]4(C)c5ccc(C(C)C)cc5CCC34)OC2=O)c1 (stereo partly shown)	=	5.04
CC(C)c1ccc2c(c1)CCC1[C@](C)(C(=O)OCC3CN(c4cccc(F)c4)C(=O)O3)CCC[C@]21C (stereo partly shown)	=	4.60
Cc1ccc(N2CC(COC(=O)[C@]3(C)CCC[C@]4(C)c5ccc(C(C)C)cc5CCC34)OC2=O)cc1 (stereo partly shown)	=	5.54
Cc1ccccc1N1CC(COC(=O)[C@]2(C)CCC[C@]3(C)c4ccc(C(C)C)cc4CCC23)OC1=O (stereo partly shown)	=	4.56
CC(C)c1ccc2c(c1)CCC1[C@](C)(C(=O)OCC(O)CNc3ccccc3)CCC[C@]21C (stereo partly shown)	=	4.73
COc1cccc(NCC(O)COC(=O)[C@]2(C)CCC[C@]3(C)c4ccc(C(C)C)cc4CCC23)c1 (stereo partly shown)	=	4.66
Cc1ccc(NCC(O)COC(=O)[C@]2(C)CCC[C@]3(C)c4ccc(C(C)C)cc4CCC23)cc1 (stereo partly shown)	=	4.35
CC(C)c1ccc2c(c1)CC[C@H]1[C@](C)(C(=O)O)CCC[C@]21C [DHA, Dehydroabietic acid]	<	4.00
CC(C)c1ccc2c(c1)CCC1[C@](C)(C(=O)OCC(O)CNc3ccc(F)cc3)CCC[C@]21C (stereo partly shown)	=	4.81
COc1ccc(N2CC(COC(=O)[C@]3(C)CCC[C@]4(C)c5ccc(C(C)C)cc5CCC34)OC2=O)cc1 (stereo partly shown)	=	4.85
Cc1ccccc1NCC(O)COC(=O)[C@]1(C)CCC[C@]2(C)c3ccc(C(C)C)cc3CCC12 (stereo partly shown)	<	4.00
COc1ccccc1NCC(O)COC(=O)[C@]1(C)CCC[C@]2(C)c3ccc(C(C)C)cc3CCC12 (stereo partly shown)	=	4.58
CC(C)c1ccc2c(c1)CCC1[C@](C)(C(=O)OCC(O)CNc3cccc(F)c3)CCC[C@]21C (stereo partly shown)	<	4.00
Cc1cccc(NCC(O)COC(=O)[C@]2(C)CCC[C@]3(C)c4ccc(C(C)C)cc4CCC23)c1 (stereo partly shown)	=	4.70
CC(C)c1ccc2c(c1)CCC1[C@](C)(C(=O)OCC3CN(c4cccc(Br)c4)C(=O)O3)CCC[C@]21C (stereo partly shown)	=	4.60
CC(C)c1ccc2c(c1)CCC1[C@](C)(C(=O)OCC(O)CNc3ccc(Cl)cc3)CCC[C@]21C (stereo partly shown)	<	4.00
CC(C)c1ccc2c(c1)CCC1[C@](C)(C(=O)OCC3CN(c4ccccc4F)C(=O)O3)CCC[C@]21C (stereo partly shown)	<	4.00
CC(C)c1ccc2c(c1)CCC1[C@](C)(C(=O)OCC(O)CNc3cccc(Cl)c3)CCC[C@]21C (stereo partly shown)	=	4.74
CC(C)c1ccc2c(c1)CCC1[C@](C)(C(=O)OCC3CN(c4ccccc4)C(=O)O3)CCC[C@]21C (stereo partly shown)	=	5.32
